Target: Human CatG (Homo sapiens)
Construct: purchased Elastin Products Company (Owensville, MO, USA)
Sequence (P08311 21-255): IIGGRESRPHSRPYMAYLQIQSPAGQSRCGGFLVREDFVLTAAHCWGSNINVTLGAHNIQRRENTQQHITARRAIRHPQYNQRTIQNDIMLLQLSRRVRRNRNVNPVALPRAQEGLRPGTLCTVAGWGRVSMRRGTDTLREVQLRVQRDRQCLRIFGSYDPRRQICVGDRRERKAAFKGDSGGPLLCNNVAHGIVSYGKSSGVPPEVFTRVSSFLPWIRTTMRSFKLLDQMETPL
Test: Direct inhibition of CatG, chromogenic substrate (S-7388) hydrolysis assay, IC50 determination
Assay type: biochemical
Settings: Hill slope of dose-response fit; 100 mM NaCl, pH 7.4
// HS (Hill slope) lookup, one value per entry
Respond numerically, and do not add a unit to the figure.

Example cases with answers are listed next.
Molecule	Result Value
CCOC(=O)c1c(C)oc2cc(OCc3ccccc3)c(OCCCOc3cc(OS(=O)(=O)O)cc4oc(-c5ccc(OS(=O)(=O)O)cc5)cc(=O)c34)cc12 [NSGM 30]	2.1
O=c1cc(-c2ccc(OS(=O)(=O)O)cc2)oc2cc(OS(=O)(=O)O)cc(OCc3ccc(-c4ccc(COc5cc(OS(=O)(=O)O)cc6oc(-c7ccc(OS(=O)(=O)O)cc7)cc(=O)c56)cc4)cc3)c12 [NSGM 23]	4.1
O=c1c(OS(=O)(=O)O)c(-c2ccc(OS(=O)(=O)O)c(OS(=O)(=O)O)c2)oc2cc(OS(=O)(=O)O)cc(OCCCOc3cc(OS(=O)(=O)O)cc4oc(-c5ccc(OS(=O)(=O)O)c(OS(=O)(=O)O)c5)c(OS(=O)(=O)O)c(=O)c34)c12 [NSGM 24]	1.5
O=c1c(OS(=O)(=O)O)c(-c2ccc(OS(=O)(=O)O)c(OS(=O)(=O)O)c2)oc2cc(OS(=O)(=O)O)cc(OCc3cccc(COc4cc(OS(=O)(=O)O)cc5oc(-c6ccc(OS(=O)(=O)O)c(OS(=O)(=O)O)c6)c(OS(=O)(=O)O)c(=O)c45)c3)c12 [NSGM 27]	0.9
O=c1c(OS(=O)(=O)O)c(-c2ccc(OS(=O)(=O)O)c(OS(=O)(=O)O)c2)oc2cc(OS(=O)(=O)O)cc(OCc3ccc(COc4cc(OS(=O)(=O)O)cc5oc(-c6ccc(OS(=O)(=O)O)c(OS(=O)(=O)O)c6)c(OS(=O)(=O)O)c(=O)c45)nc3)c12 [NSGM 28]	0.9

Enquiry: Recorded HS (Hill slope) of O=c1cc(-c2ccc(OS(=O)(=O)O)cc2)oc2cc(OS(=O)(=O)O)cc(OCc3cccc(COc4cc(OS(=O)(=O)O)cc5oc(-c6ccc(OS(=O)(=O)O)cc6)cc(=O)c45)c3)c12 [NSGM 21] , please.
Return: 1.3

Enquiry: Moving on to O=c1c(OS(=O)(=O)O)c(-c2ccc(OS(=O)(=O)O)c(OS(=O)(=O)O)c2)oc2cc(OS(=O)(=O)O)cc(OCc3ccc(COc4cc(OS(=O)(=O)O)cc5oc(-c6ccc(OS(=O)(=O)O)c(OS(=O)(=O)O)c6)c(OS(=O)(=O)O)c(=O)c45)cc3)c12 [NSGM 25]
Return: 0.7

Enquiry: Moving on to O=c1cc(-c2ccc(OS(=O)(=O)O)cc2)oc2cc(OS(=O)(=O)O)cc(OCc3ccc(COc4cc(OS(=O)(=O)O)cc5oc(-c6ccc(OS(=O)(=O)O)cc6)cc(=O)c45)nc3)c12 [NSGM 22]
Return: 1.2

Enquiry: Moving on to O=S(=O)(O)Oc1cc2c(c(OS(=O)(=O)O)c1)CC(OS(=O)(=O)O)C(c1ccc(OS(=O)(=O)O)c(OS(=O)(=O)O)c1)O2 (stereo not drawn) [NSGM 17]
Return: 3.1
